From: patent US20230382924A1

# Experimental target: CFTR (Homo sapiens)
# Assay method text: Membrane Potential Dye, Enteroid Assay A
# Assay type: cell-based
# Particulars: Table 9
Measured attribute: Ent. A Max Activity

Cc1cccc(C)c1-c1cc2nc(n1)NS(=O)(=O)c1cccc(c1)C(=O)NC1(CCN(C3CC4(CC4)C3)CC1)CO2 [Compound 174]	+++ (+++ is >60%)
Cc1cccc(C)c1-c1cc2nc(n1)NS(=O)(=O)c1cccc(c1)C(=O)N[C@@H]1CCN(Cc3ccccc3)C[C@H]1O2 (stereo in doubt) [Compound 382]	+++ (+++ is >60%)

----------
# Experimental target: CFTR (Homo sapiens)
# Assay method text: Membrane Potential Dye, Enteroid Assay B
# Type: cell-based
# Particulars: Table 8
Measured attribute: Ent. B Max Activity

Some solved cases for reference:
Cc1cccc(C)c1-c1cc2nc(n1)NS(=O)(=O)c1ccnc(c1)C(=O)N[C@H](CC1CCCCC1)CO2 [Compound 142]	++ (++ is 306%)
Cc1ccc(C2CNC(=O)c3cccc(c3)S(=O)(=O)Nc3nc(cc(-c4c(C)cccc4C)n3)O2)cc1 (stereo not drawn) [Compound 405]	++ (++ is 306%)
Cc1cccc(C)c1-c1cc2nc(n1)NS(=O)(=O)c1cccc(c1)C(=O)NC[C@@H](c1ccc(C(C)(C)C)cc1)O2 (single isomer, unassigned) [Compound 5]	+++ (+++ is >60%)
Cc1cccc(C)c1-c1cc2nc(n1)NS(=O)(=O)c1cccc(c1)C(=O)NCC(c1ccc(C3(C(F)(F)F)CC3)cc1)O2 (single isomer, unassigned) [Compound 11]	+++ (+++ is >60%)

Inquiry: What is its Ent. B Max Activity for CFTR (Homo sapiens)? Entry: Cc1cccc(C)c1-c1cc2nc(n1)NS(=O)(=O)c1cccc(c1)C(=O)N[C@H](C)[C@@H](c1ccc(C(C)(C)C)cc1)O2 [Compound 38]
Reply text: +++ (+++ is >60%)

----------
Listed here are molecules together with their documented EC50.
# Experimental target: CFTR (Homo sapiens)
# Assay method text: Membrane Potential Dye, Enteroid Assay A
# Assay type: cell-based
# Particulars: Enteroid Assay A; read-out: Ent. A EC50
# Procedure: Base medium (ADF+++) consisted of Advanced DMEM/Ham's F12, 2 mM Glutamax, 10 mM HEPES, […] penicillin/streptomycin. Bath 1 Buffer consisted of 1 mM MgCl2, 160 mM NaCl, 4.5 mM KCl, 10 mM HEPES, 10 mM Glucose, 2 mM CaCl2). […] Briefly, cells were washed 5 times in Bath 1 Buffer. […] Chloride transport was initiated by addition of Chloride Free Dye Stimulation Solution and the fluorescence signal was read for 15 min. […]

Inquiry: Entry under review: Cc1cccc(C)c1-c1cc2nc(n1)NS(=O)(=O)c1cccc(c1)C(=O)NC1CC(CN(CCC(C)(C)C3CC3)C1)O2 (stereo not drawn) [Compound 195] . Reported EC50?
Reply text: < 1 µM

Inquiry: Please report the recorded EC50 for CC(C)C[C@@H]1COc2cc(-c3ccccc3C(C)C)nc(n2)NS(=O)(=O)c2cccc(c2)C(=O)N1 [Compound 345] .
Reply text: < 1 µM

Inquiry: Recorded EC50 for COc1cc(C)c(CN2CCC3(CC2)CNC(=O)c2cccc(c2)S(=O)(=O)Nc2nc(cc(-c4c(C)cccc4C)n2)OC3)cc1C [Compound 438] , please?
Reply text: 1 to 3 µM

Inquiry: May I ask what EC50 has been recorded for Cc1ccccc1-c1cc2nc(n1)NS(=O)(=O)c1cccc(c1)C(=O)N[C@H](CC(C)C)CO2 [Compound 329] ?
Reply text: < 1 µM

Inquiry: // returns reported EC50 for input Cc1cccc(C)c1-c1cc2nc(n1)NS(=O)(=O)c1cccc(c1)C(=O)NCC1(CCN(C(=O)C3CCCCN3Cc3ccc(F)cc3)CC1)CO2 (stereo not drawn) [Compound 456]
Reply text: 3 to 30 µM

Inquiry: Return reported EC50; argument: Cc1cccc(C)c1-c1cc2nc(n1)NS(=O)(=O)c1cccc(c1)C(=O)NC1CC(CN(CCC(C)(C)C)C1)O2 (single isomer, unassigned) [Compound 79]
Reply text: < 1 µM

----------
# Experimental target: UniProt:P13569
# Assay method text: Membrane Potential Dye, Enteroid Assay A
# Format: cell-based
# Particulars: Table 8; read-out: Ent. A EC50
Measured attribute: EC50

Cc1cccc(C)c1-c1cc2nc(n1)NS(=O)(=O)c1cccc(c1)C(=O)N[C@@H](CC1(C(F)(F)F)CC1)CO2	< 1 µM
Cc1cccc(C)c1-c1cc2nc(n1)NS(=O)(=O)c1cccc(c1)C(=O)N[C@@H](CC1CCC1)[C@@H](c1ccc(C(C)(C)C)cc1)O2 (stereo in doubt)	< 1 µM

Pending compound:
Inquiry: Dear colleague, I am looking for the recorded EC50 of the following compound: Cc1cccc(C)c1-c1cc2nc(n1)NS(=O)(=O)c1cccc(c1)C(=O)N[C@H](CC(C)C)C(C1CC1)O2 (stereo partly drawn) [Compound 238]
Reply text: 1 to 3 µM

----------
# Experimental target: CFTR (Homo sapiens)
# Assay method text: Membrane Potential Dye, Enteroid Assay A
# Assay type: cell-based
# Particulars: Table 8; read-out: Ent. A EC50
# EC50 per entry

These solved cases illustrate the format of a correct answer.
Cc1cccc(C)c1-c1cc2nc(n1)NS(=O)(=O)c1cccc(c1)C(=O)NCC(c1ccc(Cl)cc1)O2 (centres unmarked)	< 1 µM
COc1ccc(C)c(-c2cc3nc(n2)NS(=O)(=O)c2cccc(c2)C(=O)N[C@H](CC(C)C)CO3)c1	1 to 3 µM
COc1ccccc1C1CNC(=O)c2cccc(c2)S(=O)(=O)Nc2nc(cc(-c3c(C)cccc3C)n2)O1 (centres unmarked)	< 1 µM
CC(C)C[C@@H]1COc2cc(-c3c(C(C)C)cccc3C(C)C)nc(n2)NS(=O)(=O)c2cccc(c2)C(=O)N1	< 1 µM
CC(C)C[C@@H]1COc2cc(-c3ccccc3F)nc(n2)NS(=O)(=O)c2cccc(c2)C(=O)N1	1 to 3 µM
CC(C)C[C@@H]1COc2cc(C3CCOCC3)nc(n2)NS(=O)(=O)c2cccc(c2)C(=O)N1	3 to 30 µM
CC(C)C[C@@H]1COc2cc(C3CC4CCC3(C)C4(C)C)nc(n2)NS(=O)(=O)c2cccc(c2)C(=O)N1 (some centres unmarked)	< 1 µM
Cc1cccc(C)c1-c1cc2nc(n1)NS(=O)(=O)c1cccc(c1)C(=O)NCC(c1ccc(-c3ccccc3)cc1)O2 (centres unmarked)	< 1 µM

Inquiry: Look up EC50 for this compound: Cc1cccc(C)c1-c1cc2nc(n1)NS(=O)(=O)c1cccc(c1)C(=O)NCC(c1ccc(C(C)(C)C)cn1)O2 (centres unmarked)
Reply text: < 1 µM

Inquiry: Can you look up the measured EC50 of Cc1cccc(C)c1-c1cc2nc(n1)NS(=O)(=O)c1cccc(c1)C(=O)NC[C@@H](c1ccc(C(C)(C)C)cc1)O2 (single isomer, unassigned) for me?
Reply text: < 1 µM

Inquiry: Fill in the blank: the reported EC50 of Cc1cccc(C)c1-c1cc2cc(n1)NS(=O)(=O)c1cccc(c1)C(=O)N[C@H](CC(C)C)CO2 is ____.
Reply text: < 1 µM

Inquiry: # query: EC50 of entry Cc1cccc(C)c1-c1cc2nc(n1)NS(=O)(=O)c1cccc(c1)C(=O)N[C@@H](CCC(C)(C)C)CO2 (single isomer, unassigned)
Reply text: < 1 µM

Inquiry: Recorded EC50 of Cc1cccc(C)c1-c1cc2nc(n1)NS(=O)(=O)c1cccc(c1)C(=O)NCC(C1CCN(C(=O)OC(C)(C)C)CC1)O2 (centres unmarked) , please.
Reply text: < 1 µM

Inquiry: Form field: reported EC50 of Cc1cccc(C)c1-c1cc2nc(n1)NS(=O)(=O)c1cccc(c1)C(=O)N[C@H](C(CC(C)C)CC(C)C)CO2
Reply text: < 1 µM

----------
# Experimental target: CFTR (Homo sapiens, UniProt P13569)
# Sequence (P13569 with tags, fused parts or gaps DEL508-508): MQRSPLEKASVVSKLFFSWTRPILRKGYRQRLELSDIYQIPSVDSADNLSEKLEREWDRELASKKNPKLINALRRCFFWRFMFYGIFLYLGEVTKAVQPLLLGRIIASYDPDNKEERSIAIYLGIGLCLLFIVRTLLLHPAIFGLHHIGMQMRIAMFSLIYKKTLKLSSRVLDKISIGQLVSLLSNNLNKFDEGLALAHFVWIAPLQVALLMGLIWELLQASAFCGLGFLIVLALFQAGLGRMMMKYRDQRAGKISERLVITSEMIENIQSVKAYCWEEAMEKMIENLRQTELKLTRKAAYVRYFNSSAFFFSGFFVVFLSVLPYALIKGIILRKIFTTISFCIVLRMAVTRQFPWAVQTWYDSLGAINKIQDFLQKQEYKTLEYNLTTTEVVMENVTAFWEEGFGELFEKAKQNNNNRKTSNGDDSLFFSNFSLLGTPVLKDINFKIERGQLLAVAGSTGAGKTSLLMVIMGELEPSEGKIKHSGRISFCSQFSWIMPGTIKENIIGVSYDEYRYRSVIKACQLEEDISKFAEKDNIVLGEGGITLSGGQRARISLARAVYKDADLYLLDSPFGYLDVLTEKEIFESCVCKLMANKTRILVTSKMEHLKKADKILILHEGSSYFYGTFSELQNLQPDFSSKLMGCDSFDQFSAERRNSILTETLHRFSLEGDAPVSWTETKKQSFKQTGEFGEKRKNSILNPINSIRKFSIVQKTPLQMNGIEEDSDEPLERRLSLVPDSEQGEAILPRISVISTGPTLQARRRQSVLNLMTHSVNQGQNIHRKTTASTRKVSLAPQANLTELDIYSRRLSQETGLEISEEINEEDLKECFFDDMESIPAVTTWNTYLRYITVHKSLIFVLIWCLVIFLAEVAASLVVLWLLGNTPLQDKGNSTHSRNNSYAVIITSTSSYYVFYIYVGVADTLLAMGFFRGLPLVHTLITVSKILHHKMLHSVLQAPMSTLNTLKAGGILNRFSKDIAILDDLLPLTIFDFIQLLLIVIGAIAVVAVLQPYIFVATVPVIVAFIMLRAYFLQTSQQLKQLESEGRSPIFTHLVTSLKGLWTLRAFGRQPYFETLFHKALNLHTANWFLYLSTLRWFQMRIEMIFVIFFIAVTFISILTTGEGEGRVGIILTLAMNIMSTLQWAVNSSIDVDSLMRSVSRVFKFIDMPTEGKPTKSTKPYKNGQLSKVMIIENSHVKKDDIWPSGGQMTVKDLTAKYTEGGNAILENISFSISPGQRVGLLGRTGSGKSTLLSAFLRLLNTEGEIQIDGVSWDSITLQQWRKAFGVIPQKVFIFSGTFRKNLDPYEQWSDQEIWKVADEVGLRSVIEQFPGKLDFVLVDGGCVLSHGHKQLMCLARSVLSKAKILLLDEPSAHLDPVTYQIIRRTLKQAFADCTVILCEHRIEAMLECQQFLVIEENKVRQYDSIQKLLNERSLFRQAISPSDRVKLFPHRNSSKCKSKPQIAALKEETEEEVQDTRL
# Assay method text: Membrane Potential Dye, Enteroid Assay A
# Format: cell-based
# Particulars: Table 8; read-out: Ent. A EC50
Measured attribute: EC50

Cc1cccc(C)c1-c1cc2nc(n1)NS(=O)(=O)c1cccc(c1)C(=O)N[C@H](CC(C)C)[C@H](C)O2 [Compound 235]	< 1 µM
Cc1cccc(C)c1-c1cc2nc(n1)NS(=O)(=O)c1cccc(c1)C(=O)NCC(c1cccc(C(C)(C)C)c1)O2 (stereo not drawn) [Compound 247]	< 1 µM
Cc1cccc(C)c1-c1cc2nc(n1)NS(=O)(=O)c1cccc(c1)C(=O)N[C@H](C1CCCCC1)CO2 [Compound 493]	< 1 µM
Cc1cccc(C)c1-c1cc2nc(n1)NS(=O)(=O)c1cccc(c1)C(=O)NCC(c1ccc(CC(C)(C)C)cc1)O2 (stereo not drawn) [Compound 267]	< 1 µM
Cc1cccc(F)c1-c1cc2nc(n1)NS(=O)(=O)c1cccc(c1)C(=O)N[C@H](CC(C)C)CO2 [Compound 98]	< 1 µM

Inquiry: // query EC50 value for entry Cc1cccc(C)c1-c1cc2nc(n1)NS(=O)(=O)c1cccc(c1)C(=O)N[C@H](CC1CCCCC1)[C@@H](c1ccc(C(C)(C)C)cc1)O2 [Compound 154]
Reply text: < 1 µM

Inquiry: Tell me the measured EC50 of Cc1cccc(C)c1-c1cc2nc(n1)NS(=O)(=O)c1cccc(c1)C(=O)N[C@H](C(C)(C)C)CO2 [Compound 361] , please.
Reply text: < 1 µM

Inquiry: Bench note: what EC50 did CC(C)C[C@@H]1COc2cc(C3CCCCO3)nc(n2)NS(=O)(=O)c2cccc(c2)C(=O)N1 (stereo partly drawn) [Compound 313] show?
Reply text: 3 to 30 µM

Inquiry: Entry Cc1ccccc1-c1cc2nc(n1)NS(=O)(=O)c1cccc(c1)C(=O)N[C@H](CC(C)(C)C)CO2 [Compound 305] has what EC50?
Reply text: < 1 µM

Inquiry: Given the entry Cc1cccc(C)c1-c1cc2nc(n1)NS(=O)(=O)c1cccc(c1)C(=O)NCC(c1ccc3c(c1)C(C)(C)CCC3(C)C)O2 (stereo not drawn) [Compound 117] , report its measured EC50.
Reply text: < 1 µM

Inquiry: Give its EC50 value. Item: Cc1cccc(C)c1-c1cc2nc(n1)NS(=O)(=O)c1cccc(c1)C(=O)NCC(C1CCCCC1)O2 (stereo not drawn) [Compound 281]
Reply text: < 1 µM

Inquiry: // lookup EC50 for Cc1cccc(C)c1-c1cc2nc(n1)NS(=O)(=O)c1cccc(c1)C(=O)NCC(c1ccc(C(C)(C)O)cc1)O2 (stereo not drawn) [Compound 245]
Reply text: 3 to 30 µM

Inquiry: // lookup EC50 for Cc1cccc(C)c1-c1cc2nc(n1)NS(=O)(=O)c1cccc(c1)C(=O)N[C@H](CCC(C)(C)C)CO2 (single isomer, unassigned) [Compound 47]
Reply text: < 1 µM

Inquiry: For COc1cccc(C2CNC(=O)c3cccc(c3)S(=O)(=O)Nc3nc(cc(-c4c(C)cccc4C)n3)O2)c1 (stereo not drawn) [Compound 158] , what is its reported EC50?
Reply text: < 1 µM

Inquiry: Can you share its EC50? I mean this compound: Cc1cccc(C)c1-c1cc2nc(n1)NS(=O)(=O)c1cccc(c1)C(=O)NCC(c1cccc(Cl)c1)O2 (stereo not drawn) [Compound 32]
Reply text: < 1 µM
